tested on: HepaRG; assay: LDH release cytotoxicity, % of total lysis control; higher = more cytotoxic; conditions: 0.3162278 µM; 48 h
Value Type: LDH release cytotoxicity (%)
# unit: % | format: bare number

The examples below pair each entry with its known result.
Molecule	LDH release cytotoxicity, %
CC(C)CCCCCCCOC(=O)c1ccccc1C(=O)OCCCCCCCC(C)C	-1.36
CCCCC(O)(Cn1cncn1)c1ccc(Cl)cc1Cl (stereo not given)	0.00223
[OH-].c1cc[c]([Sn+]([c]2ccccc2)[c]2ccccc2)cc1 [Triphenyltin hydroxide]	-0.513
CCCCC(CC)COC(=O)CCCCC(=O)OCC(CC)CCCC (stereo not given) [Bis(2-ethylhexyl)hexanedioate]	-3.04
Cc1cc(Cc2ccc(N)c(C)c2)ccc1N	-0.759
Cc1ccc(N(C)C)cc1	-1.31
O=C1CCCCC1	-1.81
C#CC1(O)CCC2C3CCC4=CC(=O)CCC4C3CCC21CC (stereo not given)	-1.67

Entry COc1cnc(OC)n2nc(NS(=O)(=O)c3c(OCC(F)F)cccc3C(F)(F)F)nc12 — recorded LDH release cytotoxicity = -1.21

Entry CC(C)N(Cc1ccccc1)C(=O)C(C)(C)C — recorded LDH release cytotoxicity = -1.1

Entry CC(C)(C)c1cccc(C(C)(C)C)c1O — recorded LDH release cytotoxicity = -1.81

Entry CC(=O)OCC(COC(C)=O)OC(C)=O — recorded LDH release cytotoxicity = -1.81

Entry OCCC(F)(F)C(F)(F)C(F)(F)C(F)(F)C(F)(F)C(F)(F)F — recorded LDH release cytotoxicity = -1.67

Entry COP(=S)(OC)Oc1ccc([N+](=O)[O-])c(C)c1 — recorded LDH release cytotoxicity = -0.603

Entry CC12C=CC(=O)C=C1CCC1C2C(=O)CC2(C)C1CCC2(O)C(=O)CO (stereo not given) — recorded LDH release cytotoxicity = -2.31

Entry Cc1ccc(C)c(C)c1 — recorded LDH release cytotoxicity = -1.49

Entry O=[N+]([O-])/N=C1\NCCN1Cc1ccc(Cl)nc1 — recorded LDH release cytotoxicity = -1.14

Entry NS(=O)(=O)C(F)(F)C(F)(F)C(F)(F)C(F)(F)C(F)(F)C(F)(F)C(F)(F)C(F)(F)F [Perfluorooctanesulfonamide] — recorded LDH release cytotoxicity = -2.69

Entry CCC(=NOCC=CCl)C1C(=O)CC(C2CCOCC2)CC1=O (stereo not given) — recorded LDH release cytotoxicity = -1.97

Entry O=P(O)(O)CCCl — recorded LDH release cytotoxicity = -2.29

Entry CCOC(N)=O — recorded LDH release cytotoxicity = -1.42

Entry ClCC(Cl)CCl — recorded LDH release cytotoxicity = -1.6

Entry CCOc1cccc(C2(N3CCN(c4ccccc4)CC3)CCC(C)CC2)c1 (stereo not given) — recorded LDH release cytotoxicity = -2.68

Entry CC(C)=CC1C(C(=O)OCN2C(=O)C3=C(CCCC3)C2=O)C1(C)C (stereo not given) — recorded LDH release cytotoxicity = -2

Entry Cc1ccc(S(=O)(=O)O)cc1C [Sodium xylenesulfonate] — recorded LDH release cytotoxicity = -1.14

Entry CCN(CC)c1ccccc1 — recorded LDH release cytotoxicity = -1.37

Entry CC(C)CCCCCCOC(=O)CCCCC(=O)OCCCCCCC(C)C — recorded LDH release cytotoxicity = 0.647

Entry Fc1ccccc1C(F)COC1CCC(Nc2[nH]cnc3nncc2-3)CC1 (stereo not given) — recorded LDH release cytotoxicity = -2.19

Entry Oc1cc(Cl)c(Cl)cc1Cl — recorded LDH release cytotoxicity = -1.7

Entry C#CCN1C(=O)COc2cc(F)c(N3C(=O)C4=C(CCCC4)C3=O)cc21 — recorded LDH release cytotoxicity = -0.721
